# credit: PubChem BioAssay AID1963867

Items are presented alongside their recorded pIC50.
- Test system: KRAS-mutant PDC tumor spheroid with HUVEC/MSC, viability;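 note: spheroids exposed to agents for seven days before reading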
- Assay Text: Anticancer human tumor 327498-153-R-J2-PDC patient-derived uterine carcinosarcoma cell line growth inhibition [KRAS2]
- Experimental Conditions: curve of first compound; second compound 3.16 µM
pIC50: −log10 of the molar value.

1) CN(C)C/C=C/C(=O)Nc1cc2c(Nc3ccc(F)c(Cl)c3)ncnc2cc1O[C@H]1CCOC1 + CC1OCC2(CCN(c3cnc(Sc4ccnc(N)c4Cl)c(N)n3)CC2)C1N    > 9.50
2) COc1cc(Nc2ncc3c(n2)-c2ccc(Cl)cc2C(c2c(F)cccc2OC)=NC3)ccc1C(=O)O + C=CC(=O)N1CCN(c2nc(=O)n(-c3c(C)ccnc3C(C)C)c3nc(-c4c(O)cccc4F)c(F)cc23)C(C)C1    > 7.50
3) COc1cc(Nc2ncc3c(n2)-c2ccc(Cl)cc2C(c2c(F)cccc2OC)=NC3)ccc1C(=O)O + CC1OCC2(CCN(c3cnc(Sc4ccnc(N)c4Cl)c(N)n3)CC2)C1N    > 7.50
4) O=C(c1cc(Cc2n[nH]c(=O)c3ccccc23)ccc1F)N1CCN(C(=O)C2CC2)CC1 + COc1cc2nc(C)nc(NC(C)c3cc(N)cc(C(F)(F)F)c3)c2cc1OC1CCOC1    5.76

Per the records, this molecule ( COc1cc2nccc(Oc3ccc(NC(=O)C4(C(=O)Nc5ccc(F)cc5)CC4)cc3)c2cc1OC + CC1OCC2(CCN(c3cnc(Sc4ccnc(N)c4Cl)c(N)n3)CC2)C1N ) has pIC50 equal to > 7.50

Data point: CC1(C)CCC(CN2CCN(c3ccc(C(=O)NS(=O)(=O)c4ccc(NCC5CCOCC5)c([N+](=O)[O-])c4)c(Oc4cnc5[nH]ccc5c4)c3)CC2)=C(c2ccc(Cl)cc2)C1 + CC1OCC2(CCN(c3cnc(Sc4ccnc(N)c4Cl)c(N)n3)CC2)C1N ; pIC50 = > 7.50
